Test system: velvetleaf (Abutilon theophrasti)
protocol.description: Test C preemergence
Format: in vivo
condition.summary: preemergence, Rate 31 g/ha, scale 0 to 100
attribute.measured: Plant response rating, Velvetleaf
No unit in the answer, please; the number alone is enough.

Data point: CCCC(C)c1ccn(C2SCN(c3cccc(OC(F)(F)F)c3)C2=O)n1 (stereo not drawn) ; Plant response rating, Velvetleaf = 0

Data point: CCOc1cc(N2CCC(n3ccc(C(C)(C)C)n3)C2=O)ccc1C (stereo not drawn) ; Plant response rating, Velvetleaf = 90

Data point: CC(C)OC(=O)c1cccc(N2CCC(n3ccc(C(C)(C)C)n3)C2=O)c1 (stereo not drawn) ; Plant response rating, Velvetleaf = 0

Data point: CC(C)(C)c1ccn(C2CCN(c3ccc(Cl)c(Cl)c3)C2=O)n1 (stereo not drawn) ; Plant response rating, Velvetleaf = 0

Data point: Cc1ccc(N2CCC(n3ccc(C(C)(C)C)n3)C2=O)cc1OCCCl (stereo not drawn) ; Plant response rating, Velvetleaf = 50

Data point: CCC(CC)c1ccn(C2SCN(c3cccc(C(F)(F)F)c3)C2=O)n1 (stereo not drawn) ; Plant response rating, Velvetleaf = 0

---

For each of the molecules below, state its Plant response rating, Bermudagrass.
Tested on: bermudagrass (Cynodon dactylon)
protocol.description: Test C preemergence
Assay type: in vivo
condition.summary: Rate 125 g/ha; scale 0 to 100, 0 no effect, 100 complete control
No unit in the answer, please; the number alone is enough.

Bench note, bermudagrass (Cynodon dactylon): entry COc1cc(N2CCC(n3ccc(C(C)(C)C)n3)C2=O)ccc1Cl (stereo not shown) [Compound 117] , its Plant response rating, Bermudagrass = 100

Bench note, bermudagrass (Cynodon dactylon): entry CC(C)(C)c1ccn(C2CCN(c3cccc(I)c3)C2=O)n1 (stereo not shown) [Compound 88] , its Plant response rating, Bermudagrass = 100

Bench note, bermudagrass (Cynodon dactylon): entry CC(C)(C)c1ccn(C2CCN(c3cccc(SC(F)(F)F)c3)C2=O)n1 (stereo not shown) [Compound 93] , its Plant response rating, Bermudagrass = 90

Bench note, bermudagrass (Cynodon dactylon): entry CCCC(C)c1ccn(C2CCN(c3cccc(C(F)(F)F)c3)C2=O)n1 (stereo not shown) [Compound 100] , its Plant response rating, Bermudagrass = 90

Bench note, bermudagrass (Cynodon dactylon): entry Cc1ccc(N2CCC(n3ccc(C(C)(C)C)n3)C2=O)cc1OCCCl (stereo not shown) [Compound 109] , its Plant response rating, Bermudagrass = 100

Bench note, bermudagrass (Cynodon dactylon): entry CCC(C)c1ccn(C2OCN(c3cccc(OC(F)F)c3)C2=O)n1 (stereo not shown) [Compound 134] , its Plant response rating, Bermudagrass = 100

Bench note, bermudagrass (Cynodon dactylon): entry CCCC(C)c1ccn(C2OCN(c3cccc(C(F)(F)F)c3)C2=O)n1 (stereo not shown) [Compound 89] , its Plant response rating, Bermudagrass = 90

Bench note, bermudagrass (Cynodon dactylon): entry Cc1ccc(N2CCC(n3ccc(C(C)(C)C)n3)C2=O)cc1OC(F)F (stereo not shown) [Compound 79] , its Plant response rating, Bermudagrass = 100

Bench note, bermudagrass (Cynodon dactylon): entry CCCC(C)c1ccn(C2SCN(c3cccc(OC(F)(F)F)c3)C2=O)n1 (stereo not shown) [Compound 90] , its Plant response rating, Bermudagrass = 100

Bench note, bermudagrass (Cynodon dactylon): entry CCC(C)c1ccn(C2CCN(c3cccc(OC)c3)C2=O)n1 (stereo not shown) [Compound 95] , its Plant response rating, Bermudagrass = 100

Bench note, bermudagrass (Cynodon dactylon): entry COc1cccc(N2CCC(n3ccc(C(C)(C)C)n3)C2=O)c1 (stereo not shown) [Compound 87] , its Plant response rating, Bermudagrass = 100

Bench note, bermudagrass (Cynodon dactylon): entry CC(C)(C)c1ccn(C2CCN(c3ccc(F)c(Br)c3)C2=O)n1 (stereo not shown) [Compound 75] , its Plant response rating, Bermudagrass = 100

Bench note, bermudagrass (Cynodon dactylon): entry CCCC(C)c1ccn(C2OCN(c3cccc(OC(F)F)c3)C2=O)n1 (stereo not shown) [Compound 132] , its Plant response rating, Bermudagrass = 100

Bench note, bermudagrass (Cynodon dactylon): entry CCC(CC)c1ccn(C2CCN(c3cccc(OC(C)C)c3)C2=O)n1 (stereo not shown) [Compound 84] , its Plant response rating, Bermudagrass = 100

Bench note, bermudagrass (Cynodon dactylon): entry CCCC(C)c1ccn(C2CCN(c3cccc(OCC)c3)C2=O)n1 (stereo not shown) [Compound 129] , its Plant response rating, Bermudagrass = 100

Bench note, bermudagrass (Cynodon dactylon): entry CCCC(C)c1ccn(C2CCN(c3ccc(Cl)c(OC)c3)C2=O)n1 (stereo not shown) [Compound 121] , its Plant response rating, Bermudagrass = 100
